Record form. Attribute: IC50. Fill in for each entry.
Target: dopamine D2 receptor (DRD2) (Homo sapiens (Human), UniProt P14416)
Sequence (P14416 whole entry): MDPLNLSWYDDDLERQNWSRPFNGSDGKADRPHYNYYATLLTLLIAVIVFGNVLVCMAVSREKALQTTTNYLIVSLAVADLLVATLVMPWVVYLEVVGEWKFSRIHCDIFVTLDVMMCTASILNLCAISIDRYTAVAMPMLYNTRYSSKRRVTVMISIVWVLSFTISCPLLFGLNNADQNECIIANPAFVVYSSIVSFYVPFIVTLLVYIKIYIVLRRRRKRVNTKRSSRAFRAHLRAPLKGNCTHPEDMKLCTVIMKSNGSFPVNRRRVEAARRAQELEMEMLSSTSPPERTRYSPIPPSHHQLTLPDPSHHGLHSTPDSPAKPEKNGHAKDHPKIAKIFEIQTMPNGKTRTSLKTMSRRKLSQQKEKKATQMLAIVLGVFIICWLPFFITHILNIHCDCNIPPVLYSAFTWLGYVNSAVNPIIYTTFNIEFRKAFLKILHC
Experiment: Dopamine D2 receptor antagonism, Fluo-4 calcium fluorescence in HEK293 cells stably expressing DRD2/Gα16
Details: 50 nM Dopamine as agonist, read-out: IC50 for inhibiting dopamine D2 receptor
Give just the numeric value; nM need not be written.

Prompt line: Could you share which IC50 value was measured for COc1ccc(C2CC(=O)c3c(O)cc(OCCCCN4CCC(c5noc6cc(F)ccc56)CC4)cc3O2)cc1 (stereo not drawn) ?
Response line: 51.3

Prompt line: Any idea what its IC50 is? The compound is COc1ccc(C2CC(=O)c3c(O)cc(OCCCN4CCN(c5ccccc5OC)CC4)cc3O2)cc1 (stereo not drawn)
Response line: 220

Prompt line: // IC50 lookup, key: COc1ccccc1N1CCN(CCCCOc2cc(O)c3c(c2)OC(c2ccc(F)cc2)CC3=O)CC1 (stereo not drawn)
Response line: 57.3

###

Record form. Attribute: pIC50. Fill in for each entry.
Target: dopamine D2 receptor (DRD2) (Homo sapiens (Human), UniProt P14416)
Test: Dopamine D2 receptor antagonism, Fluo-4 calcium fluorescence in HEK293 cells stably expressing DRD2/Gα16
Settings: 50 nM Dopamine as agonist, read-out: IC50 for inhibiting dopamine D2 receptor
A value of pIC50 is the negative decimal logarithm of a concentration given in moles per litre.

Prompt line: Write down the reported pIC50 of COc1ccccc1N1CCN(CCCCOc2cc(O)c3c(c2)OC(c2ccc(C)cc2)CC3=O)CC1 (stereo not shown) [Compound P2] , test system: dopamine D2 receptor (DRD2) (Homo sapiens (Human), UniProt P14416).
Response line: 6.46

Prompt line: Item: O=C1CC(c2ccc(F)cc2)Oc2cc(OCCCCN3CCC(c4noc5cc(F)ccc45)CC3)cc(O)c21 (stereo not shown) Test system: dopamine D2 receptor (DRD2) (Homo sapiens (Human), UniProt P14416) Read-out: pIC50 Value: ?
Response line: 7.06

Prompt line: Write down the reported pIC50 of COc1ccc(C2CC(=O)c3c(O)cc(OCCCCN4CCN(c5ccccc5OC)CC4)cc3O2)cc1 (stereo not shown) [Compound P1] , test system: dopamine D2 receptor (DRD2) (Homo sapiens (Human), UniProt P14416).
Response line: 6.69

Prompt line: Record COc1ccc(C2CC(=O)c3c(O)cc(OCCCN4CCC(c5noc6cc(F)ccc56)CC4)cc3O2)cc1 (stereo not shown) : what is its pIC50 with dopamine D2 receptor (DRD2) (Homo sapiens (Human), UniProt P14416)?
Response line: 6.94
